// provenance: patent US20240226228A1

- Test system: red blood cells
- assay.details: Hemolysis assay
- Type: cell-based, Sprague-Dawley mouse
recorded.metric: HC50 (µM)
Form entry: value (µM) — number only.

Briefly, HC50 measured for C[C@@H](c1ccccc1)N(CC(N)=O)C(=O)CN(C(=O)CN(CCCCN)C(=O)CN(CCc1c[nH]c2ccccc12)C(=O)CN(CCc1c[nH]c2ccccc12)C(=O)CN(CCCCN)C(=O)CN(C(=O)CN(C(=O)CN(CCCCN)C(=O)CN(C(=O)CN(C(=O)CNCCCCN)[C@@H](C)c1ccccc1)[C@@H](C)c1ccccc1)[C@@H](C)c1ccccc1)[C@@H](C)c1ccccc1)[C@@H](C)c1ccccc1 : 65.2

Briefly, HC50 measured for C[C@@H](c1ccccc1)N(CC(N)=O)C(=O)CN(C(=O)CN(CCCCN)C(=O)CN(C(=O)CN(C(=O)CN(CCCCN)C(=O)CN(CCc1c[nH]c2ccccc12)C(=O)CN(C(=O)CN(CCCCN)C(=O)CN(C(=O)CN(C(=O)CNCCCCN)[C@@H](C)c1ccccc1)[C@@H](C)c1ccccc1)[C@@H](C)c1ccccc1)[C@@H](C)c1ccccc1)[C@@H](C)c1ccccc1)[C@@H](C)c1ccccc1 : 31.9

---

Record form. Attribute: HC50. Fill in for each entry.
- Tested on: red blood cells
- assay.details: Hemolysis assay
- Type: cell-based, Sprague-Dawley mouse
Where a SMILES comes first, the peptide text is derived from it. [ ]: non-standard residue; d: D form. Gly(N(CH2)2(3-indolyl)) = O=C(O)CNCCc1c[nH]c2ccccc12; Nspe = C[C@H](NCC(=O)O)c1ccccc1; Nlys = NCCCCNCC(=O)O
Form entry: value (µM) — number only.

Briefly, HC50 measured for C[C@@H](c1ccccc1)N(CC(=O)N(CCc1c[nH]c2ccccc12)CC(=O)N(CCCCN)CC(=O)N(CC(=O)N(CC(=O)N(CCCCN)CC(=O)N(CC(=O)N(CC(=O)N(CCCCN)CC(=O)N(CC(=O)N(CCc1c[nH]c2ccccc12)CC(N)=O)[C@@H](C)c1ccccc1)[C@@H](C)c1ccccc1)[C@@H](C)c1ccccc1)[C@@H](C)c1ccccc1)[C@@H](C)c1ccccc1)C(=O)CNCCCCN [Peptoid 16] (H-[Nlys][Nspe][Gly(N(CH2)2(3-indolyl))][Nlys][Nspe][Nspe][Nlys][Nspe][Nspe][Nlys][Nspe][Gly(N(CH2)2(3-indolyl))]-NH2) : 25.0

Briefly, HC50 measured for C[C@@H](c1ccccc1)N(CC(=O)N(CCCCN)CC(=O)N(CC(=O)N(CC(=O)N(CCCCN)CC(=O)N(CC(=O)N(CC(=O)N(CCCCN)CC(=O)N(CC(=O)N(CCc1c[nH]c2ccccc12)CC(N)=O)[C@@H](C)c1ccccc1)[C@@H](C)c1ccccc1)[C@@H](C)c1ccccc1)[C@@H](C)c1ccccc1)[C@@H](C)c1ccccc1)C(=O)CN(CCc1c[nH]c2ccccc12)C(=O)CNCCCCN [Peptoid 17] (H-[Nlys][Gly(N(CH2)2(3-indolyl))][Nspe][Nlys][Nspe][Nspe][Nlys][Nspe][Nspe][Nlys][Nspe][Gly(N(CH2)2(3-indolyl))]-NH2) : 39.7

---

Record form. Attribute: HC50. Fill in for each entry.
- System: red blood cells
- assay.details: Hemolysis assay
- Assay type: cell-based, Sprague-Dawley mouse
- Protocol: To confirm cytotoxicity by the hemolytic activity of each peptoid synthesized in Example 1, hemolysis analysis was performed. […] A supernatant was obtained and transferred to a new 96-well plate at 150 μL, and absorbance was measured using a spectrophotometer at 540 nm. Percent hemolysis may be calculated by the following Equation 1, and the corresponding results are shown in Tables 11 to 13. % Hemolysis=(A−C)/(B−C)×100 [Equation 1] […]
Where a SMILES comes first, the peptide text is derived from it. [ ]: non-standard residue; d: D form. Gly(N(CH2)2(3-indolyl)) = O=C(O)CNCCc1c[nH]c2ccccc12; Nspe = C[C@H](NCC(=O)O)c1ccccc1; Nphe = O=C(O)CNCc1ccccc1; Nlys = NCCCCNCC(=O)O

Briefly, HC50 measured for C[C@@H](c1ccccc1)N(CC(N)=O)C(=O)CN(C(=O)CN(CCCCN)C(=O)CN(C(=O)CN(CCCCN)C(=O)CN(CCCCN)C(=O)CN(CCc1c[nH]c2ccccc12)C(=O)CN(C(=O)CN(CCCCN)C(=O)CN(C(=O)CN(C(=O)CNCCCCN)[C@@H](C)c1ccccc1)[C@@H](C)c1ccccc1)[C@@H](C)c1ccccc1)[C@@H](C)c1ccccc1)[C@@H](C)c1ccccc1 [Peptoid 25] : >100/>100 μM

Briefly, HC50 measured for C[C@@H](c1ccccc1)N(CC(=O)N(CCCCN)CC(=O)N(CC(=O)N(CC(=O)N(CCCCN)CC(=O)N(CCCCN)CC(=O)N(CC(=O)N(CCCCN)CC(=O)N(CCc1c[nH]c2ccccc12)CC(=O)N(CCc1c[nH]c2ccccc12)CC(N)=O)Cc1ccccc1)[C@@H](C)c1ccccc1)[C@@H](C)c1ccccc1)C(=O)CN(C(=O)CNCCCCN)[C@@H](C)c1ccccc1 [Peptoid 39] (H-[Nlys][Nspe][Nspe][Nlys][Nspe][Nspe][Nlys][Nlys][Nphe][Nlys][Gly(N(CH2)2(3-indolyl))][Gly(N(CH2)2(3-indolyl))]-NH2) : 100/>100 μM

Briefly, HC50 measured for C[C@@H](c1ccccc1)N(CC(N)=O)C(=O)CN(C(=O)CN(CCCCN)C(=O)CN(CCc1c[nH]c2ccccc12)C(=O)CN(C(=O)CN(CCCCN)C(=O)CN(C(=O)CN(C(=O)CN(CCCCN)C(=O)CN(C(=O)CN(C(=O)CNCCCCN)[C@@H](C)c1ccccc1)[C@@H](C)c1ccccc1)[C@@H](C)c1ccccc1)[C@@H](C)c1ccccc1)[C@@H](C)c1ccccc1)[C@@H](C)c1ccccc1 [Peptoid 8] : 28.4 µM

Briefly, HC50 measured for C[C@@H](c1ccccc1)N(CC(=O)N(CCCCN)CC(=O)N(CCCCN)CC(=O)N(CC(=O)N(CC(=O)N(CCCCN)CC(=O)N(CC(=O)N(CC(=O)N(CCCCN)CC(N)=O)[C@@H](C)c1ccccc1)[C@@H](C)c1ccccc1)[C@@H](C)c1ccccc1)[C@@H](C)c1ccccc1)C(=O)CN(CCCCN)C(=O)CN(CCc1c[nH]c2ccccc12)C(=O)CNCCc1c[nH]c2ccccc12 [Peptoid 38] (H-[Gly(N(CH2)2(3-indolyl))][Gly(N(CH2)2(3-indolyl))][Nlys][Nspe][Nlys][Nlys][Nspe][Nspe][Nlys][Nspe][Nspe][Nlys]-NH2) : >100/>100 μM

Briefly, HC50 measured for C[C@@H](c1ccccc1)N(CC(N)=O)C(=O)CN(C(=O)CN(CCCCN)C(=O)CN(C(=O)CN(C(=O)CN(CCCCN)C(=O)CN(C(=O)CN(C(=O)CN(CCCCN)C(=O)CN(C(=O)CN(CCCCN)C(=O)CN(CCCCN)C(=O)CN(CCc1c[nH]c2ccccc12)C(=O)CNCCc1c[nH]c2ccccc12)[C@@H](C)c1ccccc1)[C@@H](C)c1ccccc1)[C@@H](C)c1ccccc1)[C@@H](C)c1ccccc1)[C@@H](C)c1ccccc1)[C@@H](C)c1ccccc1 [Peptoid 36] : 39.4 µM

---

- System: red blood cells
- assay.details: Hemolysis assay
- Assay type: cell-based, Sprague-Dawley mouse
Where a SMILES comes first, the peptide text is derived from it. [ ]: non-standard residue; d: D form. Gly(N(CH2)2(3-indolyl)) = O=C(O)CNCCc1c[nH]c2ccccc12; Nspe = C[C@H](NCC(=O)O)c1ccccc1; Nphe = O=C(O)CNCc1ccccc1; Nlys = NCCCCNCC(=O)O
recorded.metric: HC50

Briefly, HC50 measured for C[C@@H](c1ccccc1)N(CC(N)=O)C(=O)CN(C(=O)CN(CCCCN)C(=O)CN(C(=O)CN(CCc1c[nH]c2ccccc12)C(=O)CN(CCCCN)C(=O)CN(CCc1c[nH]c2ccccc12)C(=O)CN(C(=O)CN(CCCCN)C(=O)CN(C(=O)CN(C(=O)CNCCCCN)[C@@H](C)c1ccccc1)[C@@H](C)c1ccccc1)[C@@H](C)c1ccccc1)[C@@H](C)c1ccccc1)[C@@H](C)c1ccccc1 [Peptoid 15-1] : > 100 µM

Briefly, HC50 measured for C[C@@H](c1ccccc1)N(CC(=O)N(CCCCN)CC(=O)N(CC(=O)N(CC(N)=O)Cc1ccccc1)Cc1ccccc1)C(=O)CN(CCCCN)C(=O)CN(CCCCN)C(=O)CN(C(=O)CN(C(=O)CN(CCCCN)C(=O)CN(C(=O)CN(C(=O)CNCCCCN)[C@@H](C)c1ccccc1)[C@@H](C)c1ccccc1)[C@@H](C)c1ccccc1)[C@@H](C)c1ccccc1 [Peptoid 45] (H-[Nlys][Nspe][Nspe][Nlys][Nspe][Nspe][Nlys][Nlys][Nspe][Nlys][Nphe][Nphe]-NH2) : >100/>100 μM

Briefly, HC50 measured for C[C@@H](c1ccccc1)N(CC(=O)N(CCCCN)CC(=O)N(CC(=O)N(CC(=O)N(CCCCN)CC(=O)N(CC(=O)N(CC(=O)N(CCCCN)CC(N)=O)[C@@H](C)c1ccccc1)[C@@H](C)c1ccccc1)[C@@H](C)c1ccccc1)[C@@H](C)c1ccccc1)C(=O)CN(C(=O)CN(CCCCN)C(=O)CN(CCc1c[nH]c2ccccc12)C(=O)CNCCc1c[nH]c2ccccc12)[C@@H](C)c1ccccc1 [Peptoid 37-2] (H-[Gly(N(CH2)2(3-indolyl))][Gly(N(CH2)2(3-indolyl))][Nlys][Nspe][Nspe][Nlys][Nspe][Nspe][Nlys][Nspe][Nspe][Nlys]-NH2) : 26.0 µM
